Would you mind telling me the reported Solvent solubility of acid generator of each entry?
assay: Evaluation of solubility of acid generator in PGMEA; conditions: maximal concentration dissolved in propylene glycol monomethyl ether acetate (PGMEA)
State the answer as a number, implicitly in % by mass.

# lookup: Solvent solubility of acid generator of CCCCC(Oc1cc2c3c(cccc3c1)C(=O)N(OS(=O)(=O)C(F)(F)C(=O)OC1C3CC4OS(=O)(=O)C1C4C3)C2=O)C(=O)O (stereo not shown)
10

Name the recorded Solvent solubility of acid generator for CC(C)c1cc2c3c(c(C(C)C)ccc3c1)C(=O)N(OS(=O)(=O)C(F)(F)C(=O)OC1C3CC4OS(=O)(=O)C1C4C3)C2=O (stereo not shown) .
10

Any idea what Solvent solubility of acid generator was measured for COC(=O)C(F)(F)S(=O)(=O)ON1C(=O)c2cccc3cccc(c23)C1=O ?
5

# Solvent solubility of acid generator lookup, item CCCCC(Oc1cc2c3c(cccc3c1)C(=O)N(OS(=O)(=O)C(F)(F)C(=O)OCCC13CC4CC(CC(C4)C1)C3)C2=O)C(=O)O (stereo not shown)
10

* * *

experiment: Evaluation of solubility of acid generator in PGMEA; conditions: maximal concentration dissolved in propylene glycol monomethyl ether acetate (PGMEA)
Would you mind telling me the reported Solvent solubility of acid generator of each entry?

I would be grateful if you could share the reported Solvent solubility of acid generator for CCCCc1ccc2c3c(cccc13)C(=O)N(OS(=O)(=O)C(F)(F)C(=O)OC)C2=O .
> 20% by mass

I have this compound here, CCCCc1ccc2c3c(cccc13)C(=O)N(OS(=O)(=O)C(F)(F)C(=O)OCCC1CCCCC1)C2=O , and I need its recorded Solvent solubility of acid generator.
> 20% by mass

Entry CCCCC(CC)COC(=O)CSc1ccc2c3c(cccc13)C(=O)N(OS(=O)(=O)C(F)(F)C(=O)OC)C2=O (stereo not drawn) : reported Solvent solubility of acid generator = ?
> 20% by mass
